molecular target: Insulin-degrading enzyme (Homo sapiens); experiment: inhibitors of IDE decapeptide proteolysis, dose response, counter-screen for IDE exo-site inhibitor project, biochemical, kinetic mode (AID 1259348); conditions: purified human IDE, fluorogenic decapeptide proteolysis
Task for the reader: assign each of the following compounds its reported IC50.

Field: example entries. Status: answers known.
- chemical_structure: "Cc1ccccc1-c1ccc([C@@H]2[C@@H](CO)N3CCCCN(C(=O)CN4CCOCC4)C[C@@H]23)cc1"
  experimental_value: "6.4 µM"
- chemical_structure: "Cc1ccccc1-c1ccc([C@@H]2[C@@H](CO)N3CCCCN(S(C)(=O)=O)C[C@@H]23)cc1"
  experimental_value: "1.3 µM"
- chemical_structure: "Cc1ccccc1-c1ccc([C@@H]2[C@H]3CN(S(=O)(=O)c4cn(C)cn4)CCCCN3[C@H]2CO)cc1"
  experimental_value: "1.7 µM"
- chemical_structure: "Cc1cccc(-c2ccc([C@@H]3[C@@H](CO)N4CCCCN(S(=O)(=O)c5cccc(C)c5)C[C@@H]34)cc2)c1"
  experimental_value: "1 µM"

Report IC50 for every entry below.
1. Cc1ccccc1-c1ccc([C@@H]2[C@H](CO)N3C(=O)CN(C(=O)NC4CCCC4)C[C@@H]23)cc1
2. Cc1ccccc1-c1ccc([C@H]2[C@@H](CO)N3CCCCN(C(=O)c4cccnc4)C[C@H]23)cc1
3. Cc1ccccc1-c1ccc([C@H]2[C@@H](CO)N3CCCCN(C(=O)Nc4ccccc4)C[C@@H]23)cc1
4. O=C(NC1CCCC1)N1CCCCN2[C@H](C1)[C@H](c1ccc(/C=C/c3ccccc3)cc1)[C@@H]2CO
5. COc1cccc(-c2ccc([C@@H]3[C@@H](CO)N4CCCCN(CC5CC5)C[C@@H]34)cc2)c1
6. Cc1ccccc1-c1ccc([C@@H]2[C@@H](CO)N3CCCCN(C(=O)Cc4ccccn4)C[C@@H]23)cc1
7. Cc1ccccc1-c1ccc([C@H]2[C@H](CO)N3CCCCN(CC4CC4)C[C@@H]23)cc1
8. COc1cccc(-c2ccc([C@@H]3[C@@H](CO)N4CCCCN(C(=O)Cc5ccncc5)C[C@@H]34)cc2)c1

["3.6 µM", "3.1 µM", "2.9 µM", "11.5 µM", "22.5 µM", "11.5 µM", "30 µM", "14.7 µM"]
